Just for reference, patent US6737383B1 is where these values come from.

Quick list: Plant response rating, Redroot pigweed per entry.
Test system: pigweed
Test: Test B pre/postemergence pigweed
Assay type: in vivo, Amaranthus retroflexus
Conditions: Postemergence, Rate 250 g/ha; scale 0 to 10, 0 is no effect, 10 is complete control
MEASUREMENT KIND: Plant response rating, Redroot pigweed

> print(dat)
                                   molecule                        measurement.kind  measurement
1  CC(C)N(C(=O)n1oc(=O)n(N2CCOCC2)c1=O)c1ccc(F)cc1 [Compound 385]  Plant response rating, Redroot pigweed            0
2  CC1CC1n1c(=O)on(C(=O)N(c2ccc(F)cc2F)C(C)C)c1=O (centres unmarked) [Compound 372]  Plant response rating, Redroot pigweed            6
3  CCOC(=O)C(C)N(C(=O)n1oc(=O)n(C)c1=O)c1ccc(F)cc1 (centres unmarked) [Compound 365]  Plant response rating, Redroot pigweed            0
4  CC(C)N(C(=O)n1oc(=O)n(C2(C)CC2)c1=O)c1ccc(F)cc1F [Compound 363]  Plant response rating, Redroot pigweed            2
5  CC1CC1n1c(=O)on(C(=O)N(c2ccccc2)C(C)C)c1=O (centres unmarked) [Compound 370]  Plant response rating, Redroot pigweed            0

---

Quick list: Plant response rating, Wild oats per entry.
Tested on: wild oat
Assay: Test B pre/postemergence wild oat
Assay type: in vivo, Avena fatua
Conditions: Preemergence, Rate 125 g/ha; scale of 0 to 10 where 0 is no effect and 10 is complete control
MEASUREMENT KIND: Plant response rating, Wild oats

> print(dat)
                                   molecule  measurement
1  CC[Si](C)(C)Cn1c(=O)on(C(=O)N(c2ccc(Cl)cc2)C(C)C)c1=O [Compound 460]            0
2  CC(C)N(C(=O)n1oc(=O)n(CO)c1=O)c1ccc(Cl)cc1 [Compound 457]            0
3  CC(C)N(C(=O)n1oc(=O)n(CC#N)c1=O)c1ccc(F)cc1 [Compound 395]            0
4  CC(C)N(C(=O)n1oc(=O)n(C(CF)CCl)c1=O)c1ccc(F)cc1 (racemic) [Compound 707]            8

---

Quick list: Plant response rating (0 to 10; 0 is no effect, 10 is complete control), Cocklebur per entry.
System: cocklebur
Experiment: Test B pre/postemergence cocklebur
Type: in vivo, Xanthium strumarium
Settings: Rate 250 g/ha; Postemergence
MEASUREMENT KIND: Plant response rating (0 to 10; 0 is no effect, 10 is complete control), Cocklebur

> print(dat)
                        structure.as.smiles  target.or.test.system  measurement
1  CC(C)N(C(=O)n1oc(=O)n(COCc2ccccc2)c1=O)c1ccc(F)cc1              cocklebur            0
2  Cc1ccccc1-n1c(=O)on(C(=O)N(c2ccc(F)cc2Cl)C(C)C)c1=O              cocklebur            0
3  COc1cc(C)cc(C)c1-n1c(=O)on(C(=O)N(c2ccc(F)cc2)C(C)C)c1=O              cocklebur            0
4  Cc1ccccc1-n1c(=O)on(C(=O)N(c2ccc(C(C)C)cc2)C(C)C)c1=O              cocklebur            0
5  Cc1nc(C)c(Cn2c(=O)on(C(=O)N(c3ccc(F)cc3F)C(C)C)c2=O)s1              cocklebur            2
